Source: ChEMBL document CHEMBL1146898

tested on: PBMC; assay: Induction of IFNalpha production in human PBMC; format: functional, cell-based
Listing of entries alongside the reported EC50.
Give your result in µM as a bare value.

As a guide, the following entries are already answered.
structure=COCCOc1nc(N)c2nc(NCCO)n(Cc3ccccc3)c2n1 study_target=PBMC unit_text=µM value_observed=5.33
structure=COCCOc1nc(N)c2nc(NCCN3CCOCC3)n(Cc3ccccc3)c2n1 study_target=PBMC unit_text=µM value_observed=0.79
structure=COCCOc1nc(N)c2[nH]c(=O)n(Cc3ccccc3)c2n1 study_target=PBMC unit_text=µM value_observed=0.14
structure=CCNc1nc2c(N)nc(OCCOC)nc2n1Cc1ccccc1 study_target=PBMC unit_text=µM value_observed=4.42

Asked: Sample COCCOc1nc(N)c2nc(NCCCO)n(Cc3ccccc3)c2n1 — what was its EC50?
Given back: 3.2

###

system: PBMC; assay: Maximal IFNalpha production in human PBMC at 10 uM; format: functional
Activity values by entry
Write the answer as a number in pg/mL, unit excluded.

Asked: For COCCOc1nc(N)c2nc(N)n(Cc3ccccc3)c2n1 , what is its reported Activity?
Given back: 132

Asked: Can you look up the measured Activity of CCNc1nc2c(N)nc(OCCOC)nc2n1Cc1ccccc1 for me?
Given back: 141

Asked: Any idea what its Activity is? The compound is COCCOc1nc(N)c2nc(NCCO)n(Cc3ccccc3)c2n1
Given back: 168

Asked: Would you kindly share the measured Activity for COCCOc1nc(N)c2nc(NCCCO)n(Cc3ccccc3)c2n1 ?
Given back: 206

Asked: Tell me the measured Activity of COCCOc1nc(N)c2nc(NCCN3CCOCC3)n(Cc3ccccc3)c2n1 , please.
Given back: 176

Asked: Could you share which Activity value was measured for COCCOc1nc(N)c2[nH]c(=O)n(Cc3ccccc3)c2n1 ?
Given back: 220
